pEC50: recorded values
# Tested on: Human immunodeficiency virus 1
# assayName: Antiviral activity against wild-type HIV1 3B infected in human MT4 cells assessed as inhibition of viral cytopathic effect by MTT assay
# Format: functional, organism-based
# runConditions: Human immunodeficiency virus 1, 3B
As a rule, pEC50 stands for the negative log10 of the concentration, concentration in M.

>>> reportedvalue("O=C(NCc1cccc(F)c1)c1nc(-c2ccc(F)cc2)[nH]c(=O)c1O")
5.13
>>> reportedvalue("O=C(NCc1ccccc1F)c1nc(-c2ccc(F)cc2)[nH]c(=O)c1O")
5.11
>>> reportedvalue("O=C(NCc1ccccc1)c1nc(-c2ccccc2)nc(O)c1O")
5.25

Lab note: measured pEC50 of O=C(NCc1cccc(Cl)c1)c1nc(-c2ccc(F)cc2)[nH]c(=O)c1O was 5.72

Lab note: measured pEC50 of Cc1ccc(CNC(=O)c2nc(-c3ccc(F)cc3)[nH]c(=O)c2O)cc1C was 5.57
